Molecular target: cholinergic receptors of muscarinic type
Details: rat cerebra without cerebellum, 0.05 nM QNB (^3 H), 25° C., 1 hour, pH 7.4; read-out: Bond with QNB (^3 H) IC50
pIC50: −log10 of the molar value.
Entries and their pIC50
property label: pIC50

compound="Cc1cc(-c2ccsc2)nnc1NCCN1CCOCC1.Cl.Cl [CM 30388, dihydrochloride]" system_tested="cholinergic receptors of muscarinic type" property_label=pIC50 number=4.74
compound="Cc1cc(-c2cccs2)nnc1NCCN1CCOCC1.Cl.Cl [CM 30387, dihydrochloride]" system_tested="cholinergic receptors of muscarinic type" property_label=pIC50 number=4.62
compound="Cc1cc(-c2ccccc2)nnc1NCCN1CCOCC1 [Minaprine, reference compound]" system_tested="cholinergic receptors of muscarinic type" property_label=pIC50 number=4.00
compound="Cc1cc(C2CCCCC2)nnc1NCCN1CCOCC1.Cl.Cl [CM 30390, dihydrochloride]" system_tested="cholinergic receptors of muscarinic type" property_label=pIC50 number=4.85
